Hey, just so you know, these numbers are from patent US4794197A.

# elimination of iron by excretion in the faeces values compiled below
Test system: rats with an excessively high iron level
Assay: elimination of iron from rats with an excessively high iron level by excretion in urine and faeces after intravenous administration
Assay type: in vivo
Details: over 72 hours, by comparison with Desferal (= 1)

COMPOUND	RESULT
C[N+](C)(C)[C@H]1[C@@H](O)[C@@H]([N+](C)(C)C)[C@@H](O)[C@@H]([N+](C)(C)C)[C@H]1O [Example 19c]	0.5
CC(=O)N(O)CCCCCNC(=O)CCC(=O)N(O)CCCCCNC(=O)CCC(=O)N(O)CCCCCN [Desferal, reference compound]	1
CN(C)[C@H]1[C@@H](O)[C@@H](N(C)C)[C@@H](O)[C@@H](N(C)C)[C@H]1O [Example 12a, dihydrate]	0.5

Shifting focus to the compound that follows.
Prompt line: I have this compound here, N[C@H]1[C@@H](O)[C@@H](N)[C@@H](O)[C@@H](N)[C@H]1O , and I need its recorded elimination of iron by excretion in the faeces.
Response line: 0.2
